- experimental_details: soluble fraction after stress (log2 fold change); higher = more stays soluble; pooled small domains, quantitative proteomics;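 further: 20 min heating vs room temperature control held 20 min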
- details: stress: 75 degC
// label = t if soluble fraction (log2) is not less than -2, otherwise f

Query: Exam item: decide whether the reported soluble fraction (log2) for HMSPAETGIYHILVENGKPNRHGLDATNKNENWLRQFLITQNTRLEDVFLLLADDGGGIRFFKSQ is at least -2.
Response: t

Query: Is it the case that HMIDFDHADIERLWNSIIHYVPERQKLDFAIDFIKSLEDIGVEHDVLRGSAELDPKLEEAVNTVFE has soluble fraction (log2) reaching or exceeding -2?
Response: t

Query: Form field: soluble fraction (log2) at least -2? Entry: HMKFPNVGENLRLLRQEMGISLDKASKMTGVSKAMLGQIERGESSPTVSTLWKISSGFKINFTTLLSE
Response: f

Query: Is soluble fraction (log2) for HMLIVLKPNVSQEEIDHIVDKIRSLSLEPHVSTGVQRTIITVIGDEDVIREQPLEALAGVESVKSILKP at or above -2?
Response: t

Query: Assess whether reported soluble fraction (log2) for HMQLTQEAIENLFKITTAKKFREELEKLVVTDSEKKAFAYFTVYHPKLKELPFAILKSVENYTGISI sits at -2 or higher.
Response: t

Query: Decide: is the reported value of soluble fraction (log2) for HMKITKIWFTADHIFGRDEEGKEYSQSLLWYPKLSAASDEERSQYTFGYDGIHWRSLDEDISFESF equal to or greater than -2?
Response: f

Query: Decide: is the reported value of soluble fraction (log2) for HMLEEIIDVKRFLVENVRGVSEKTALAILSEFGDKTMDVLRNSPNELYRIKGMSGKRIEVIKDAIANATAS equal to or greater than -2?
Response: t

Query: Quick check: does HMGFSERLAQAMSHAGYTQGGLAKAVGMAQSSVNKLLNNANSSRKTVEIASVLGVRPEWLSTGEGDML have soluble fraction (log2) greater than or equal to -2?
Response: t

Query: Would you say HMNIEDFKDKVKELKQYTYQELVEDVKLKTDRADVILPASKIYLEAMQQAKVDSIIVPKVGLAEGVAR shows soluble fraction (log2) at minimum -2?
Response: t

Query: # check: soluble fraction (log2) of HMAIGERIRFLRTLRRMTQKELGLAAGFPEKNASIRMAQYENGTRTPKAELTAVLAEILKVSPQALTV is greater than or equal to -2
Response: t

Query: Does soluble fraction (log2) meet or surpass -2 for HMGSGQIRYITENTVRVVYGTSKENEFVFQDGKPYPKDTPYHIHYTRNLEEYFMSGVEHDKNSKIILKVD ?
Response: t

Query: Reported soluble fraction (log2) reaches at least -2 for HMKQKAEVIFVSKTIMEALSKGVRLTPENLKSETELPIDDFYARLKELIDNGSVVESRENGESYLEAGN ?
Response: t

Query: Check the entry HMNSVSIAPEMLNWVIAHIQMNSLPKQIVEHLTAWISGQKEPTFNQIEKVSRATGIPLGYFFLEQPPKE : does soluble fraction (log2) equal or exceed -2?
Response: f

Query: For this sequence, is measured soluble fraction (log2) -2 or higher? HMEWVVVPDVRRQLLPEAQRRVNKARLRLEVAGGWPAEPLLAMVVDQKPGPETRVPLNSIVVVVVRNLP
Response: t

Query: API: above_or_equal(metric=soluble fraction (log2), cutoff=-2) for item HMNGVSNETLIQKSALYEELNQPDLALKMINTALKKDSVNIEILHRLVTLLMSQEKNEEAILYNQKIIDH
Response: t

Query: Evaluate HMTARPTLEKLKYMIHEAGITENSLKVIVATKGHYGLDADISTYSDDFITRWIIPNWTKIVQTISNNK : soluble fraction (log2) at minimum -2?
Response: t

Query: // inclusive: soluble fraction (log2) at least -2? input: HMKKSIRIFELMKAKVAAEIFDQMILEGKIEDVFDIIVRLKDSNVSNIMKTMSVENSSRLVQKLERYNKD
Response: f

Query: Evaluate HMNSLTVPDITNRTLAEASQVLLDMGLTPIPDAVAKDGVGDDVVYAQSPPPNVGAREGDVVTITYNPA : soluble fraction (log2) at minimum -2?
Response: t

Query: Is reported soluble fraction (log2) greater than or equal to -2 here: HMRIAGIDIPDNKRGEVALTYIFGIGRSSSKKILKSAGIDSDKQIGKWTDDESNLVRKLIRDEYTIEGDL
Response: t

Query: Identify whether the reported soluble fraction (log2) of the following sequence is -2 or greater: HMNVDALVGMPARVTRAFVQGAGEVKLDNGETWTARLSAGVTDAEASVGQTVSVIAVRGAAVEVAPE
Response: t

Query: Please check the record HMVDLAPTEEIIKNLPNNSRSLLIPTLQKIQNAYRYLPSPAMELLSEFLNVTRAEIYGVISFYPSLL and state if its soluble fraction (log2) is at or above -2.
Response: t

Query: Decide: is the reported value of soluble fraction (log2) for HMSENKIMEIVQDLAREKSVILISHRLANVTAADKILYMEQGKIAESGTHEQLMAQNKAYAALFNKQQEL equal to or greater than -2?
Response: t

Query: I'd appreciate it if you could say whether HMGQAAHYEGVKGDGESDTDVISRVLTAAGAEAQKDDIFVVKELIAGGKYSYTAYVYDGSVWAAM has soluble fraction (log2) at least equal to -2.
Response: t

Query: # check: soluble fraction (log2) of HMGHRQRRARARNRSMLEDIPGLGPKRRQQLLRQFGGLPQLMRAGVAELSQVPGISDSLARKIHAELHPES is greater than or equal to -2
Response: f

Query: Exam item: decide whether the reported soluble fraction (log2) for HMRTYEHALTEEEKELILIVSNLSEYKSLPPSQIVPKLADLGIYIASESSFYRVLRAHNQLHHRGR is at least -2.
Response: f

Query: Reported soluble fraction (log2) reaches at least -2 for HMITNESEIERIVEAIISKNPESIAQYRSGITKVLGFLVGQVMKETKGRANPALVNRIIISKME ?
Response: t

Query: Please check the record HMNDIQIILQEAVARLPKKQQLVFNMKYFDHLKYQEISEILGTSVGGLKASYFQAVKKIENYIINKH and state if its soluble fraction (log2) is at or above -2.
Response: f

Query: Determine whether this sequence has soluble fraction (log2) no lower than -2: HMTTGLETYPGKIAVVSDDFIDGEGRVQLDGALWRAKTKDHQQLKQGDHVTIVNVKGLTLTVMPDD
Response: t

Query: I'd appreciate it if you could say whether HMVSQELIMLGNRIREYRKERGFSQEILAEKSGVSTNTISRIEGGQMAMSVGILQRIVKALGVDANVMLG has soluble fraction (log2) at least equal to -2.
Response: f

Every entry's value here was drawn from the domain aggregation screens of Martell et al. (2025).
